All values here come from ChEMBL document CHEMBL4513216.

# Test system: Plasmodium berghei
# procedure_details: Screen against P. berghei liver stage (PbLuc), transformed with Luciferase, at 2uM
# Format: functional, HepG2
# conditions_used: tested at 2 uM
Among all 68,000 compounds or so, about 2,700 (4%) showed an effect of 50% or more. Many of the other results were omitted from the sample, so strong results are more common in it than they were.
property_name: INHIBITION (%)
Entry rule: numbers only, all in %.

Problem: # lookup: INHIBITION of CC1=Nc2c(c(=O)[nH]n2C2CCCCC2)C(c2cccnc2)S1 (centres undefined)
Result: -30.12

Problem: # lookup: INHIBITION of Cc1c(O)cccc1C(=O)N1CCCC2(C1)C(=O)N(C)c1ccccc12 (centres undefined)
Result: -91.67

Problem: # lookup: INHIBITION of O=C(NCC1CC1)C1CN(Cc2cccs2)Cc2ccnn2C1 (centres undefined)
Result: 23.53

Problem: # lookup: INHIBITION of CC(C)c1nccn1C1CCCN(C(=O)c2ccsc2)C1 (centres undefined)
Result: -12.41

Problem: # lookup: INHIBITION of CSCC(=O)N1CCCC(n2ccnc2C(C)C)C1 (centres undefined)
Result: -47.97

Problem: # lookup: INHIBITION of CC(C(=O)Nc1ccc(N2CCOCC2)nc1)n1cncn1 (centres undefined)
Result: 43.32

Problem: # lookup: INHIBITION of O=C(NCC1CC1)C1CN(c2ncccn2)Cc2ccnn2C1 (centres undefined)
Result: 64.37

Problem: # lookup: INHIBITION of COCc1nc(C(=O)N2CCCC(n3ccnc3C(C)C)C2)cs1 (centres undefined)
Result: 52.52

Problem: # lookup: INHIBITION of Cc1nnc(N2CCOC(C)(C(=O)NC3CCCC3)C2)c2ccccc12 (centres undefined)
Result: 51.88

Problem: # lookup: INHIBITION of CCc1cccnc1NCc1cnc(N2CCOCC2)nc1
Result: -20.29

Problem: # lookup: INHIBITION of Cc1n[nH]c(CN2CCN(c3ncnc4scc(C)c34)CC2)c1Cl
Result: 74.18

Problem: # lookup: INHIBITION of CCN1C(=O)CCCC12CCCN(C(=O)c1cnccn1)C2 (centres undefined)
Result: -41.21

Problem: # lookup: INHIBITION of O=C1CC(c2ccc(O)cc2)c2sc(C(=O)O)c(-c3ccccc3)c2N1 (centres undefined)
Result: 20.4

Problem: # lookup: INHIBITION of COCc1nc(C(=O)N2CCCC(n3cccn3)C2)cs1 (centres undefined)
Result: 21.89

Problem: # lookup: INHIBITION of CN(Cc1ccn[nH]1)Cc1c[nH]nc1-c1ccc(F)cc1
Result: -35.45

Problem: # lookup: INHIBITION of N#Cc1cccc(CN2CC3(CCCCN3c3cccnc3)CC2=O)c1 (centres undefined)
Result: 12.57

Problem: # lookup: INHIBITION of Cc1cccc(CNC2CC3(CCN(CCO)CC3)c3ccccc32)n1 (centres undefined)
Result: 34.02

Problem: # lookup: INHIBITION of Cc1ccc(CC(=O)N2CCCC(n3ccnc3C(C)C)C2)cn1 (centres undefined)
Result: 28.65

Problem: # lookup: INHIBITION of CCOC(=O)CCCNC(=O)CN1CCN(c2ncccn2)CC1
Result: 6.56

Problem: # lookup: INHIBITION of CCc1nc(C)c(CN2CCN(c3ncnc4scc(C)c34)CC2)[nH]1
Result: -33.43

Problem: # lookup: INHIBITION of CCc1nccn1CCCNC(=O)CN1CCN(c2ncccn2)CC1
Result: 52.57

Problem: # lookup: INHIBITION of OC1(CN2CCCC(Cn3cncn3)C2)CCCCC1 (centres undefined)
Result: 19.9

Problem: # lookup: INHIBITION of Cc1nc(CC(=O)N2CCCC(n3ccnc3C(C)C)C2)cs1 (centres undefined)
Result: 66.2

Problem: # lookup: INHIBITION of Cc1n[nH]c(C)c1CCCN(C)Cc1c[nH]nc1-c1ccc(F)cc1
Result: -87.47
